Tested on: Solute carrier organic anion transporter family member 1B1 (Homo sapiens, UniProt Q9Y6L6)
Sequence (Q9Y6L6 whole entry): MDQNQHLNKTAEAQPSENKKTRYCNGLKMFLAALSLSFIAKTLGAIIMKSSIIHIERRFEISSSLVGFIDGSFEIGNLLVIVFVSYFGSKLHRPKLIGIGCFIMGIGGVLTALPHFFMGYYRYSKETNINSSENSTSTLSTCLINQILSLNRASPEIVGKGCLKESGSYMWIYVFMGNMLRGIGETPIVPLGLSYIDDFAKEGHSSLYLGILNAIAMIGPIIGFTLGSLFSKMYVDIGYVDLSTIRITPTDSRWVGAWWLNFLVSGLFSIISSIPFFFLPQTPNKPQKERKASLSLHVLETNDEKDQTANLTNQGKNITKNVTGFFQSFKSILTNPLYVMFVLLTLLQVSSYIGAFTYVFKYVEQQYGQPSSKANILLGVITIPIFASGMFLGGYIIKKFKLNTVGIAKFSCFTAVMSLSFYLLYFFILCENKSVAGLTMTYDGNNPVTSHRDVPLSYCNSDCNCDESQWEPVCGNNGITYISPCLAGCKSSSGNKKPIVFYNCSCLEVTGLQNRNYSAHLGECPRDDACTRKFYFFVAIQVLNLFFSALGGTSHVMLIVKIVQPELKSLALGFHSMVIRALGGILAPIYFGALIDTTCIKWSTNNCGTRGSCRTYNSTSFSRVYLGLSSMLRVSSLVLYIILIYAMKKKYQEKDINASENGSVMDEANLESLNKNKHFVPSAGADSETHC
Condition details: chinese hamster, cho, 10 µM
Measured property: residual activity
Be sure to follow the number with its unit.

{"Compound": "N=C(N)NCCC[C@@H](NC(=O)[C@@H](N)Cc1ccc(O)cc1)C(=O)O [d[-Arg-2]KYOTORPHAN ACETATE]", "residual activity": "114.8%"}
{"Compound": "C(=C\\c1ccccc1)/CN1CCN(C(c2ccccc2)c2ccccc2)CC1", "residual activity": "185.1%"}
{"Compound": "COC1=C(O)C(=O)c2c(cc3oc(C(C)=O)c(O)c3c2O)C1=O", "residual activity": "93.89%"}
{"Compound": "CC[N+](C)(C)c1cccc(O)c1.[Cl-] [EDROPHONIUM CHLORIDE]", "residual activity": "79.44%"}

We now examine a further compound.
q: Please indicate residual activity recorded for O=[N+]([O-])c1cccc2cn[nH]c12
a: 147.5%
